Attribution: ChEMBL document CHEMBL4689842

# Tested on: HEK-293T
# measurementProtocol: Multiplex assay against HEK293T
# Format: toxicity, cell-based
# conditions: human, 24 h, 1 µM, compound concentration 1 uM, replicate 1
Documented Population Membrane Permeable-Phenotype (%) across a set of compounds
The reply should contain only the number, in %.

Below, each entry is followed by its recorded Population Membrane Permeable-Phenotype (%) result.
compound: CN1CCN(CCOc2cc(OC3CCOCC3)c3c(Nc4c(Cl)ccc5c4OCO5)ncnc3c2)CC1 [SARACATINIB]
numericReadout: 3
//
compound: Cc1nc(-c2ccc(-c3ccc(C(=O)N4CCc5cc6c(cc54)C4(CCN(C)CC4)CO6)cc3)c(C)c2)no1 [SB-224289]
numericReadout: 1
//
compound: Cc1nc(-c2cn3c(n2)-c2ccc(-c4cnn(C(C)(C)C(N)=O)c4)cc2OCC3)n(C(C)C)n1 [TASELISIB]
numericReadout: 3

I'd like to know its Population Membrane Permeable-Phenotype (%). The compound in question is CCN(CC)CCCCNc1ncc2cc(-c3cc(OC)cc(OC)c3)c(NC(=O)NC(C)(C)C)nc2n1 [PD-173074]
36
